System: GK rats (SLAC/GK, type 2 diabetes)
run_description: Anti-diabetes (type II) activity of HPCs of NSAIAs in GK rats
Format: in vivo
test_parameters: 30 mg/kg transdermally once per day, no fasting
assay_endpoint: blood glucose, Day 1
Quick note: number first, unit second.

Would you please look over these solved cases?
CC(=O)O.CCN(CC)CCOC(=O)c1ccccc1O [P-10, diethylaminoethyl salicylate.AcOH] | 16.7 ± 3.2 mmol/L
CCN(CC)CCOC(=O)c1ccccc1OC(C)=O.Cl [P-1] | 17.1 ± 2.8 mmol/L
CC(=O)Nc1ccc(OC(=O)c2ccccc2OC(=O)CCCN(C)C)cc1.Cl [P-6] | 16.8 ± 3.0 mmol/L

In: Requested read-out: blood glucose, Day 1. Entry: CCN(CC)CCOC(=O)c1ccccc1OC(=O)c1ccccc1OC(C)=O.Cl [P-59]
Out: 16.8 ± 3.0 mmol/L

---

run_description: Distribution in organs of rats killed with CO2 (absence of general circulation);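 further: tissue concentration in nmol/g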
test_parameters: 5 hrs after 0.3 mmol/kg diethylaminoethyl acetylsalicylate HCl salt on back of killed rats
# concentration in pancreas values compiled below
Respond numerically; units are nmol/g and should not be typed.

Past entries and their recorded results:
CC(=O)Oc1ccccc1C(=O)O [aspirin, acetylsalicylic acid, reference compound] | 4.1
CCN(CC)CCOc1ccccc1C(=O)O | 3.1
CCN(CC)CCOC(=O)c1ccccc1OC(C)=O.Cl | 2.7

In: // concentration in pancreas lookup, key: O=C(O)c1ccccc1O
Out: 14.1

---

Tested on: Human breast cancer cells (BCAP-37)
run_description: Human breast cancer xenograft in nude mice
test_parameters: 50 μl of 5% topically every 8 hours
assay_endpoint: tumor Size at day 42 (mm^3)
Could you give me the number in mm^3? Just the number is fine.

Recorded tumor Size at day 42, per entry:
CN(C)CCCC(=O)OC1=C(C(=O)Nc2ccccn2)N(C)S(=O)(=O)c2ccccc21.Cl [P-51] | 390
Cl.O=C(OCCCN1CCCC1)c1ccccc1Nc1cccc(C(F)(F)F)c1 [P-48] | 280
CC(C(=O)OCCCN1CCCC1)c1cccc(C(=O)c2ccccc2)c1.Cl (centres unmarked) [P-3] | 210
CC(C(=O)OCC1CCNCC1)c1cccc(Oc2ccccc2)c1.Cl (centres unmarked) [P-4] | 190

In: Given the compound CCN(CC)CCOC(=O)C(C)c1ccc2c(c1)C(=O)Cc1cc(C)ccc1O2.Cl (centres unmarked) [P-37] , what is its reported tumor Size at day 42?
Out: 270

In: Moving on to CC1=C(CC(=O)OCCN2CCOCC2)c2cc(F)ccc2/C1=C\c1ccc([S+](C)[O-])cc1.Cl (centres unmarked) [P-12]
Out: 240

In: Item: CCN(CC)CCOC(=O)c1ccccc1OC(C)=O.Cl [P-1]
Out: 140

In: Check Cl.O=C(Cc1ccccc1Nc1c(Cl)cccc1Cl)OCCCN1CCCCC1 [P-2] too.
Out: 160

In: // same read-out, input: CCN(CC)CCOC(=O)Cc1ccccc1Oc1ccc(Cl)cc1Cl.Cl [P-19]
Out: 260

In: What do we get for CC(C)Cc1ccc(C(C)C(=O)OCC2CCCNC2)cc1.Cl (centres unmarked) [P-5] ?
Out: 180

In: Further, for CCN(CC)CCOC(=O)Cc1c(C)n(C(=O)c2ccc(Cl)cc2)c2ccc(OC)cc12.Cl [P-11] ?
Out: 230
